# MEASURED ON: HPK1 (MAP4K1) (Homo sapiens, UniProt Q92918)
# Sequence (Q92918 whole entry): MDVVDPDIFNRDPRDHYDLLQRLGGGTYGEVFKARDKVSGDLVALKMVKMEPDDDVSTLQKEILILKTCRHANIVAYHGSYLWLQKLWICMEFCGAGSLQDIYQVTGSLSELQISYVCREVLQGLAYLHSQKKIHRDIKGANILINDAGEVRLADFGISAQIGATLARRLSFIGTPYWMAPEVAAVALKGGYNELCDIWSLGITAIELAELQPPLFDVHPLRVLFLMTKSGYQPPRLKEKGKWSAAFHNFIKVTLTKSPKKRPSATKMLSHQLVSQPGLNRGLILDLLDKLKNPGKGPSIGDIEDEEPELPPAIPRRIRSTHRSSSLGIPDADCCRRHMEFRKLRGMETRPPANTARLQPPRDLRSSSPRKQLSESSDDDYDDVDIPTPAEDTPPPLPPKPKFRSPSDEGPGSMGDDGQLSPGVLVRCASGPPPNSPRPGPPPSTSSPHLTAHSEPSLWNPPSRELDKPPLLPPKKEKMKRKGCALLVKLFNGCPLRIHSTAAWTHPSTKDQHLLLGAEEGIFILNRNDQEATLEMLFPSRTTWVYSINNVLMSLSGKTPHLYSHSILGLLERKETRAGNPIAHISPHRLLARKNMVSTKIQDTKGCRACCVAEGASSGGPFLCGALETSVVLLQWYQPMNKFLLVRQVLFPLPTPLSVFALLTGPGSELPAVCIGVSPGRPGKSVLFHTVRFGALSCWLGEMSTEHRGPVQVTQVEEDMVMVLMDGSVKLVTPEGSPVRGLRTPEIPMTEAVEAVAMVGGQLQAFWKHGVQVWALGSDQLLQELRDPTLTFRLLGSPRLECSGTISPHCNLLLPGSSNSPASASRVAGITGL
# PROTOCOL DESCRIPTION: FRET Assay for HPK1 (MAP4K1): one step binding assay, displacement of labeled tracer
# STUDY CONDITIONS: 1 μM compound; FRET ratio 665/620, percent of control
MEASURED ATTRIBUTE: inhibition at 1 µM (%)

Worked cases, answers included:
[
  {
    "COMPOUND": "COCCn1ccc(N/C(C)=C2\\C(=O)Nc3cnc(-c4cnccc4C)cc32)n1",
    "MEASURED ON": "HPK1 (MAP4K1) (Homo sapiens, UniProt Q92918)",
    "inhibition at 1 µM, %": 80.4
  },
  {
    "COMPOUND": "C/C(Nc1ccc(N2CCN(C3COC3)CC2)nc1)=C1/C(=O)Nc2ccc(F)cc21",
    "MEASURED ON": "HPK1 (MAP4K1) (Homo sapiens, UniProt Q92918)",
    "inhibition at 1 µM, %": 76.1
  },
  {
    "COMPOUND": "CC(=O)N1CCN(c2ccc(N/C(C)=C3\\C(=O)Nc4cnc(-c5cnccc5C)cc43)cn2)CC1",
    "MEASURED ON": "HPK1 (MAP4K1) (Homo sapiens, UniProt Q92918)",
    "inhibition at 1 µM, %": 69.5
  }
]

(A) C/C(Nc1ccn(CC(=O)N2CCOCC2)n1)=C1/C(=O)Nc2cnc(-c3cnccc3C)cc21
(B) C/C(Nc1c(C)nn(C)c1C)=C1/C(=O)Nc2cnc(-c3cnccc3C)cc21
QUERY: Look at A and B . Which one has the lower recorded inhibition at 1 µM number? Which one? Tell me its label.
RESULT: B

---

# MEASURED ON: UniProtKB Q92918
# PROTOCOL DESCRIPTION: FRET Assay for HPK1 (MAP4K1): one step binding assay, displacement of labeled tracer
# STUDY CONDITIONS: 10 μM compound; FRET ratio 665/620, percent of control
MEASURED ATTRIBUTE: inhibition at 10 µM (%)

[
  {
    "COMPOUND": "COc1cccc(F)c1-c1ccc2c(c1)/C(=C(\\C)Nc1ccc(N(C)C(=O)CN3CCN(C)CC3)cc1)C(=O)N2 [Example 7]",
    "inhibition at 10 µM, %": 87.1
  },
  {
    "COMPOUND": "C/C(Nc1cnn(C(C)(C)C#N)c1)=C1/C(=O)Nc2ccc(-c3cnccc3C)nc21 [Example 105]",
    "inhibition at 10 µM, %": 84.4
  },
  {
    "COMPOUND": "CC/C(Nc1ccc(N2CCN(C)CC2)cc1)=C1/C(=O)Nc2ccc(-c3c(F)cccc3OC)cc21 [Example 9]",
    "inhibition at 10 µM, %": 84.4
  },
  {
    "COMPOUND": "COc1cccc(F)c1-c1ccc2c(c1)/C(=C(\\C)Nc1cnn(C)c1)C(=O)N2 [Example 10]",
    "inhibition at 10 µM, %": 88.2
  },
  {
    "COMPOUND": "COc1cccc(F)c1-c1ccc2c(c1)/C(=C(\\C)Nc1ccc(N3CCN(C)CC3)cc1C)C(=O)N2 [Example 11]",
    "inhibition at 10 µM, %": 84.4
  },
  {
    "COMPOUND": "CCn1cc(N/C(C)=C2\\C(=O)Nc3cnc(-c4c(F)cccc4OC)cc32)cn1 [Example 29]",
    "inhibition at 10 µM, %": 85.1
  },
  {
    "COMPOUND": "C/C(Nc1cnn(C)c1)=C1/C(=O)Nc2cnc(-c3cccnc3C)cc21 [Example 158]",
    "inhibition at 10 µM, %": 91.1
  },
  {
    "COMPOUND": "C/C(Nc1cnn(C)c1)=C1/C(=O)Nc2cnc(-c3cnccc3C)cc21 [Example 23]",
    "inhibition at 10 µM, %": 87
  },
  {
    "COMPOUND": "COc1cccc(F)c1-c1ccc2c(c1)/C(=C(\\C)Nc1ccn(C)n1)C(=O)N2 [Example 18]",
    "inhibition at 10 µM, %": 85.4
  },
  {
    "COMPOUND": "COc1cccc(F)c1-c1cc2c(cn1)NC(=O)/C2=C(/C)Nc1cnn(C2COC2)c1 [Example 27]",
    "inhibition at 10 µM, %": 96.3
  },
  {
    "COMPOUND": "C/C(Nc1ccc(N2CCNCC2)cc1)=C1/C(=O)Nc2cnc(-c3cnccc3C)cc21 [Example 58]",
    "inhibition at 10 µM, %": 72.7
  },
  {
    "COMPOUND": "CC(=O)N1CCC(n2cc(N/C(C)=C3\\C(=O)Nc4cnc(-c5cnccc5C)cc43)cn2)CC1 [Example 90]",
    "inhibition at 10 µM, %": 75.6
  },
  {
    "COMPOUND": "C/C(Nc1cc(C)n(C[C@H](C)O)n1)=C1/C(=O)Nc2cnc(-c3cnccc3C)cc21 [Example 184]",
    "inhibition at 10 µM, %": 75.2
  },
  {
    "COMPOUND": "C/C(Nc1cnn(C)c1)=C1/C(=O)Nc2cc(C#N)c(-c3cnccc3C)cc21 [Example 151]",
    "inhibition at 10 µM, %": 65.2
  },
  {
    "COMPOUND": "C/C(Nc1cc(C)n(CC2CC2)n1)=C1/C(=O)Nc2cnc(-c3cnccc3C)cc21 [Example 189]",
    "inhibition at 10 µM, %": 76.9
  },
  {
    "COMPOUND": "C/C(Nc1cnn(C(F)F)c1)=C1/C(=O)Nc2cnc(-c3cnccc3C)cc21 [Example 66]",
    "inhibition at 10 µM, %": 76.2
  },
  {
    "COMPOUND": "C/C(NCCN1CCOCC1)=C1/C(=O)Nc2cnc(-c3cnccc3C)cc21 [Example 86]",
    "inhibition at 10 µM, %": 74
  }
]

---

# MEASURED ON: HPK1 (MAP4K1) (Homo sapiens, UniProt Q92918)
# PROTOCOL DESCRIPTION: FRET Assay for HPK1 (MAP4K1): one step binding assay, displacement of labeled tracer
# STUDY CONDITIONS: 1 μM compound; FRET ratio 665/620, percent of control
MEASURED ATTRIBUTE: inhibition at 1 µM (%)

[
  {
    "MOLECULE": "CNC(=O)c1cc(N/C(C)=C2\\C(=O)Nc3cnc(-c4cnccc4C)cc32)nn1C [Example 75]",
    "UNITS OF MEASURE": "%",
    "READOUT NUMBER": 71
  },
  {
    "MOLECULE": "C/C(Nc1ccn(C(C)(C)C#N)n1)=C1/C(=O)Nc2cnc(-c3cncc(N)c3C)cc21 [Example 106]",
    "UNITS OF MEASURE": "%",
    "READOUT NUMBER": 80
  },
  {
    "MOLECULE": "C/C(Nc1ccc(N2CCN(C)CC2)cc1)=C1/C(=O)Nc2ccc(F)cc21 [Example 6]",
    "UNITS OF MEASURE": "%",
    "READOUT NUMBER": 85.5
  },
  {
    "MOLECULE": "C/C(Nc1cnn(C2COC2)c1)=C1/C(=O)Nc2cnc(-c3cnccc3C)cc21 [Example 52]",
    "UNITS OF MEASURE": "%",
    "READOUT NUMBER": 86.1
  },
  {
    "MOLECULE": "C/C(Nc1cnn(CC(F)F)c1)=C1/C(=O)Nc2cnc(-c3cnccc3C)cc21 [Example 61]",
    "UNITS OF MEASURE": "%",
    "READOUT NUMBER": 71.6
  },
  {
    "MOLECULE": "COc1cccc(F)c1-c1cnc2c(c1)/C(=C(\\C)Nc1cnn(C)c1)C(=O)N2 [Example 56]",
    "UNITS OF MEASURE": "%",
    "READOUT NUMBER": 66.8
  },
  {
    "MOLECULE": "C/C(Nc1ccc(OC2CCNCC2)nc1)=C1/C(=O)Nc2cnc(-c3cnccc3C)cc21 [Example 84]",
    "UNITS OF MEASURE": "%",
    "READOUT NUMBER": 75.2
  },
  {
    "MOLECULE": "C/C(Nc1cnn(C)c1)=C1/C(=O)Nc2ccc(-c3cnccc3C)cc21 [Example 161]",
    "UNITS OF MEASURE": "%",
    "READOUT NUMBER": 81.2
  }
]

(P) CCS(=O)(=O)n1nc(N/C(C)=C2\C(=O)Nc3cnc(-c4cnccc4C)cc32)cc1C [Example 180]
(Q) C/C(Nc1cc(C)n(CC[C@H](C)O)n1)=C1/C(=O)Nc2cnc(-c3cnccc3C)cc21 [Example 195]
QUERY: Sorting ascending by inhibition at 1 µM, which comes first: P or Q ? Please reply using the label of the selected record.
RESULT: Q
